Measured values drawn from PubChem BioAssay (NCI) for this set.

# Tested on: SK-MEL-2 melanoma
# method-notes: NCI tumour cell line growth inhibition, 48 h; in the data active means GI50 below about 0.43 µM; inactive means the rest
Response enum: active, inactive

INPUT: Please let me know the test result on file for `CS(=O)(=O)CCNCc1ccc(-c2ccc3ncnc(Nc4ccc(OCc5ccccc5)c(Cl)c4)c3c2)o1` .
OUTPUT: inactive

INPUT: Okay, and `CNCCCNc1nc2ccccc2c2c(=O)c3cc(Cl)ccc3sc12` ?
OUTPUT: inactive

INPUT: Another compound to check: `O=C(CCCCCCSc1nc(-c2ccc(Cl)cc2)cc(-c2ccc(Cl)cc2)n1)NO`
OUTPUT: inactive

* * *

# Test system: DU-145 prostate
# method-notes: NCI tumour cell line growth inhibition, 48 h
value-type: TGI

Worked examples, 4 compounds total:
# record-smiles, TGI
rows = [
    ("COC(=O)[C@@H]1C[C@H]([Se]c2ccccc2)CN1C(=O)OCc1ccccc1", "> 100 µM"),
    ("N#CCCN(CCN(C(=O)Nc1ccccc1)c1ccccc1)C(=O)Nc1ccccc1", "> 100 µM"),
    ("O=[N+]([O-])c1ccc2ncccc2c1Cl", "10.2 µM"),
    ("CCOC(=O)/C=C1\\c2ccccc2C(=O)N1CC(=O)OCC", "> 100 µM"),
]

Now let's try a different one.
INPUT: Look up TGI for this compound: `O=C(c1cccc(C(=O)c2ccc3c4c(cccc24)C(=O)N(c2ccccc2)C3=O)c1)c1ccc2c3c(cccc13)C(=O)N(c1ccccc1)C2=O`
OUTPUT: > 100 µM
